What follows is a collection of IC50 values obtained with GDP-loaded wild-type KRAS (WT) (Homo sapiens (Human), UniProt P01116).
Sequence (P01116-2 other isoform, or with tags, fused parts or gaps): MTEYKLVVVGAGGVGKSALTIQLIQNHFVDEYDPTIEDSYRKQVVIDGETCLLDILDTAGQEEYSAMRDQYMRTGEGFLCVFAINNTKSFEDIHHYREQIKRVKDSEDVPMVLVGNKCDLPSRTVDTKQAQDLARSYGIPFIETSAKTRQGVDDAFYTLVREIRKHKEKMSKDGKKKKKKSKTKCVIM
observationType: IC50 (nM)

Past entries and their recorded results:
[[record]]
molecule = "C#Cc1c(F)ccc2cc(N)cc(-c3nc4c5c(nc(OC[C@@]67CCCN6[C@H](COc6cc(C(F)(F)F)ncn6)CC7)nc5c3F)N3CCCOC[C@@H]3CC4)c12"
target = "GDP-loaded wild-type KRAS (WT) (Homo sapiens (Human), UniProt P01116)"
observationtype = "IC50"
value = 2.26

[[record]]
molecule = "C#Cc1c(F)ccc2cc(O)cc(-c3nc4c5c(nc(OC[C@@]67CCCN6C/C(=C\\F)C7)nc5c3F)N3CCCOC[C@@H]3CC4)c12"
target = "GDP-loaded wild-type KRAS (WT) (Homo sapiens (Human), UniProt P01116)"
observationtype = "IC50"
value = 0.06


[A] C#Cc1c(F)ccc2cc(O)cc(-c3c(F)c4c5c(nc(OC[C@@]67CCCN6C[C@H](F)C7)nc5c3F)N3CCCOC[C@@H]3CC4)c12 (mixture of isomers)
[B] C#Cc1c(F)ccc2cc(O)cc(-c3nc4c5c(nc(OC[C@@]67CCCN6[C@H](COc6cc(C(F)(F)F)ncn6)CC7)nc5c3F)N3CCCOC[C@@H]3C=C4C)c12
Choose between A and B : whose measured IC50 value is numerically larger? Please indicate the selected item by its label. B

###

Test system: cellular pERK in Kuramochi (WT KRAS) cell-line
measurementProtocol: Cell based pERK assay (HTRF), Kuramochi
condition: Kuramochi (WT KRAS) cells, 2 hours incubation
pEC50: −log10 of the molar value.
observationType: pEC50

Past entries and their recorded results:
[[record]]
compound = "C#Cc1c(F)ccc2cc(O)cc(-c3nc4c5c(nc(OC[C@@]67CCCN6C[C@H](F)C7)nc5c3F)N3CC5(COCC3CC4)OCCO5)c12 (some centres unmarked) [Example 6-16]"
value = 7.11

[[record]]
compound = "C#Cc1c(F)ccc2cc(O)cc(-c3nc4c5c(nc(OC[C@@]67CCCN6[C@H](COc6cc(C(F)(F)F)ncn6)CC7)nc5c3F)N3CCCOC[C@@H]3C=C4C)c12 [Example 18-1]"
value = 8.45

[[record]]
compound = "C#Cc1c(F)ccc2cc(O)cc(-c3c(F)c4c5c(nc(OC[C@@]67CCCN6C[C@H](F)C7)nc5c3F)N3CCCOC[C@@H]3CC4)c12 (atropisomer, axis not shown) [Example 24-1]"
value = 6.86

[[record]]
compound = "C#Cc1c(F)ccc2cc(O)cc(-c3nc4c5c(nc(OC[C@@]67CCCN6CC(=C)C7)nc5c3F)N3CCCOCC3CC4)c12 (some centres unmarked) [Example 22-2]"
value = 8.79

[[record]]
compound = "C#Cc1c(F)ccc2cc(O)cc(-c3nc4c5c(nc(OC[C@@]67CCCN6C/C(=C\\F)C7)nc5c3F)N3CCCOC[C@@H]3CC4)c12 [Example 6-23]"
value = 8.94


[1] C#Cc1c(F)ccc2cccc(-c3nc4c5c(nc(OC[C@@]67CCCN6[C@H](CF)CC7)nc5c3F)N3CCCOC[C@@H]3CC4)c12 [Example 6-10]
[2] C#Cc1c(F)ccc2cc(N)cc(-c3nc4c5c(nc(OC[C@@]67CCCN6[C@H](COc6cc(C(F)(F)F)cnn6)CC7)nc5c3F)N3CCCOC[C@@H]3CC4)c12 [Example 7-5]
[3] C#Cc1c(F)ccc2cc(O)cc(-c3nc4c5c(nc(OC[C@@]67CCCN6C[C@H](F)C7)nc5c3F)N3CCOCC[C@H]3CCC4)c12 (single isomer, unassigned) [Example 10-1]
[4] C#Cc1c(F)ccc2cc(N)cc(-c3nc4c5c(nc(OC[C@@]67CCCN6C[C@H](F)C7)nc5c3F)N3CCCOC[C@H]3C=C4C)c12 [Example 7-8]
[5] C#Cc1c(F)ccc2cccc(-c3nc4c5c(nc(OC[C@@]67CCCN6[C@H](COC(=O)NCC)CC7)nc5c3F)N3CCCOC[C@@H]3CC4)c12 [Example 16-3]
Sort low-to-high on pEC50, please. Output spec: a listing of the labels in the requested order. 1, 4, 3, 5, 2

###

Tested on: cellular pERK in Kuramochi (WT KRAS) cell-line
measurementProtocol: Cell based pERK assay (HTRF), Kuramochi
condition: Kuramochi (WT KRAS) cells, 2 hours incubation
observationType: EC50 (nM)

[[record]]
compound = "C#Cc1c(F)ccc2cc(O)cc(-c3nc4c5c(nc(OC[C@@]67CCCN6C[C@H](F)C7)nc5c3F)N3CCCC[C@H]3CC4)c12"
value = 3.89


[a] C#Cc1c(F)ccc2cc(O)cc(-c3nc4c5c(nc(OC[C@@]67CCCN6C[C@H](F)C7)nc5c3F)N3CC(F)(F)COC[C@H]3CC4)c12 (single isomer, unassigned)
[b] C#Cc1c(F)ccc2cc(O)cc(-c3nc4c5c(nc(OC[C@@]67CCCN6C[C@H](F)C7)nc5c3F)N3CCC(O)CC[C@@H]3CC4)c12 (stereo partly drawn)
[c] CCc1c(F)ccc2cc(O)cc(-c3nc4c5c(nc(OC[C@@]67CCCN6C[C@H](F)C7)nc5c3F)N3CCCCC3(C)CC4)c12 (stereo partly drawn)
[d] C#Cc1c(F)ccc2cc(O)cc(-c3nc4c5c(nc(OC[C@@]67CCCN6C[C@H](F)C7)nc5c3F)N3CCCOC[C@@H]3C[C@@H]4F)c12
Sort low-to-high on EC50, please. Output spec: a listing of the labels in the requested order. a, d, b, c
(a: 2.95 nM, d: 28.8 nM, b: 46.3 nM, c: 517 nM)

###

Test system: cellular pERK in Kuramochi (WT KRAS) cell-line
measurementProtocol: Cell based pERK assay (HTRF), Kuramochi
condition: Kuramochi (WT KRAS) cells, 2 hours incubation
observationType: EC50 (nM)

Past entries and their recorded results:
[[record]]
compound = "C#Cc1c(F)ccc2cc(N)cc(-c3nc4c5c(nc(OCC67CCCN6CCC7)nc5c3F)N3CCCOC[C@@H]3CC4)c12"
observationtype = "EC50"
readoutunit = "nM"
value = 6.12

[[record]]
compound = "C#Cc1c(F)ccc2cc(O)cc(-c3nc4c5c(nc(OC[C@@]67CCCN6C[C@H](F)C7)nc5c3F)N3CCCOC[C@@H]3CC4)c12"
observationtype = "EC50"
readoutunit = "nM"
value = 1.35


[I] C#Cc1c(F)ccc2cc(N)cc(-c3cc4c5c(nc(OC[C@@]67CCCN6C[C@H](F)C7)nc5c3F)N3CCCOCC3CC4)c12 (stereo partly shown)
[II] C#Cc1c(F)ccc2cc(O)cc(-c3nc4c5c(nc(OC[C@@]67CCCN6C[C@H](F)C7)nc5c3F)N3CCCOCC3CC4)c12 (stereo partly shown)
Of I versus II , which is the one with smaller reported EC50? Please indicate the selected item by its label. II

###

target: GDP-loaded KRAS-G12D (Homo sapiens (Human), UniProt P01116, G12D)
Sequence (P01116-2 other isoform, or with tags, fused parts or gaps G12D): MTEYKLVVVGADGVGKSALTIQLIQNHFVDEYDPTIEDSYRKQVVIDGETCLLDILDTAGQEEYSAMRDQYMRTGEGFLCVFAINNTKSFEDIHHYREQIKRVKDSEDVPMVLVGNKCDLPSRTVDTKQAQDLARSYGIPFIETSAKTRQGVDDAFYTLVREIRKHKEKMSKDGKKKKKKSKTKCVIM
measurementProtocol: KRAS (GDP) biochemical TR-FRET probe displacement assay, KRAS-G12D
condition: 2 hours
pIC50: −log10 of the molar value.
observationType: pIC50

Past entries and their recorded results:
[[record]]
compound = "C#Cc1c(F)ccc2cc(O)cc(-c3nc4c5c(nc(OC[C@@]67CCCN6[C@H](COc6cc(C(F)(F)F)ncn6)CC7)nc5c3F)N3CCCOC[C@@H]3C=C4C)c12"
value = 8.49

[[record]]
compound = "C#Cc1c(F)ccc2cc(O)cc(-c3nc4c5c(nc(OCC67CCCN6[C@H](COC(C(F)(F)F)C(F)(F)F)CC7)nc5c3F)N3CCCOCC3CC4)c12 (stereo partly drawn)"
value = 7.51

[[record]]
compound = "C#Cc1c(F)ccc2cccc(-c3nc4c5c(nc(OCC6(CN7CCCCC7)CC6)nc5c3F)N3CCCOC[C@@H]3CC4)c12"
value = 7.65

[[record]]
compound = "C#Cc1c(F)ccc2cc(N)cc(-c3nc4c5c(nc(OC[C@@]67CCCN6[C@H](COc6cc(C(F)(F)F)cnn6)CC7)nc5c3F)N3CCCOC[C@@H]3CC4)c12"
value = 8.75

[[record]]
compound = "C#Cc1c(F)ccc2cc(O)cc(-c3nc4c5c(nc(OC[C@@]67CCCN6C/C(=C\\F)C7)nc5c3F)N3CCCOC[C@@H]3CC4)c12"
value = 10.40

[[record]]
compound = "C#Cc1c(F)ccc2cc(O)cc(-c3nc4c5c(nc(OC[C@@]67CCCN6[C@H](COc6cc(C(F)(F)F)cnn6)CC7)nc5c3F)N3CCCOC[C@@H]3C=C4C)c12"
value = 9.19

[[record]]
compound = "C#Cc1c(F)ccc2cc(N)cc(-c3c(F)c4c5c(nc(OC[C@@]67CCCN6C[C@H](F)C7)nc5c3F)N3CCCOC[C@@H]3CC4)c12"
value = 7.61

[[record]]
compound = "C#Cc1c(F)ccc2cc(O)cc(-c3c(F)c4c5c(nc(OC[C@@]67CCCN6C[C@H](F)C7)nc5c3F)N3CCCOC[C@@H]3CC4)c12 (mixture of isomers)"
value = 9.06


[A] C#Cc1c(F)ccc2cc(O)cc(-c3nc4c5c(nc(OC[C@@]67CCCN6[C@H](COc6nccnc6C(F)C(C)F)CC7)nc5c3F)N3CCCOC[C@@H]3CC4)c12 (stereo partly drawn)
[B] C#Cc1c(F)ccc2cc(O)cc(-c3nc4c5c(nc(OC[C@@]67CCCN6[C@H](COc6cc(C(F)(F)F)ncn6)CC7)nc5c3F)N3CCCOC[C@@H]3CC4)c12
[C] C#Cc1c(F)ccc2cc(O)cc(C3=C(F)C4N=C(OC[C@@]56CCCN5C[C@H](F)C6)N=C5C4C(=C3F)C(C)=C[C@H]3COCCCN53)c12 (stereo partly drawn)
Order the records by pIC50, with each subsequent value no larger than the one before. Output spec: a listing of the labels in the requested order. A, B, C
(A: 10.05, B: 9.33, C: 8.55)

[1] C#Cc1c(F)ccc2cccc(-c3nc4c5c(nc(OC[C@@]67CCCN6[C@H](COC(=O)N6CCCCC6)CC7)nc5c3F)N3CCCOC[C@@H]3CC4)c12
[2] C#Cc1c(F)ccc2cccc(-c3nc4c5c(nc(OC[C@@]67CCCN6[C@H](COc6cc(C(F)(F)F)ncn6)CC7)nc5c3F)N3CCCOC[C@@H]3CC4)c12
Choose between 1 and 2 : whose measured pIC50 value is numerically larger? Please indicate the selected item by its label. 1
(1: 9.62, 2: 7.42)

[I] Cc1cc(N)nc(-c2c(Cl)c3c4c(nc(OC[C@@]56CCCN5C[C@H](F)C6)nc4c2F)N2CCCOCC2CC3)c1C(F)(F)F (mixture of isomers)
[II] C#Cc1c(F)ccc2cc(O)cc(-c3nc4c5c(nc(OC[C@@]67CCCN6C[C@H](F)C7)nc5c3F)N3CCOCCC3CC4)c12 (mixture of isomers)
[III] C#Cc1c(F)ccc2cc(O)cc(-c3nc4c5c(nc(OC[C@@]67CCCN6[C@H](COC(C(F)(F)F)(C(F)(F)F)C(F)(F)F)CC7)nc5c3F)N3CCCOC[C@@H]3CC4)c12
Order the records by pIC50, with each subsequent value no larger than the one before. Output spec: a listing of the labels in the requested order. II, III, I
(II: 9.82, III: 8.78, I: 4.76)
